Tested on: K562 CRISPRi cells
Assay name: Perturb-seq pooled growth measurement (sgRNA counts, growth phenotype γ, relative activity)
Assay type: cell-based, human
Condition notes: sequencing read counts; 10 days of growth (day twelve after transduction)
For each record, write down the corresponding Perturb-seq pooled growth sgRNA counts, d10.

Sure, the documented Perturb-seq pooled growth sgRNA counts, d10 for DUT_+_48624411.23-P1P2_07: sgRNA targeting DUT, GCGAGCGAGGAGCCCACCGG, SEQ ID NO: 113 (listed as DNA, chemistry not fully specified) is 1157

Sure, the documented Perturb-seq pooled growth sgRNA counts, d10 for GNB2L1_+_180670873.23-P1P2_13: sgRNA targeting GNB2L1, GTGCAAGGCGGCGGCGGGAG, SEQ ID NO: 57 (listed as DNA, chemistry not fully specified) is 5991

Sure, the documented Perturb-seq pooled growth sgRNA counts, d10 for HSPE1_+_198365089.23-P1P2_03: sgRNA targeting HSPE1, GGTGACTCGCAGTCCGGCCC, SEQ ID NO: 66 (listed as DNA, chemistry not fully specified) is 2279

Sure, the documented Perturb-seq pooled growth sgRNA counts, d10 for HSPA9_−_137911079.23-P1P2_08: sgRNA targeting HSPA9, GGAGCTGCTCGATGCGGTGG, SEQ ID NO: 134 (listed as DNA, chemistry not fully specified) is 2726

Sure, the documented Perturb-seq pooled growth sgRNA counts, d10 for MTOR_+_11322547.23-P1P2_10: sgRNA targeting MTOR, GGGCAGGGGGCCTGAAGCAG, SEQ ID NO: 150 (listed as DNA, chemistry not fully specified) is 7827

Sure, the documented Perturb-seq pooled growth sgRNA counts, d10 for RAN_+_131356438.23-P1P2_03: sgRNA targeting RAN, GGGGGTCGCTGCGCTTAGGG, SEQ ID NO: 71 (listed as DNA, chemistry not fully specified) is 6816
